Hey, just so you know, these numbers are from paper PMC7503500.

- Tested System: synaptic benzodiazepine-sensitive receptors (BZR), GABAAR
- Procedure Details: 3H-flunitrazepam binding, rat brain homogenate
- Reported Conditions: read-out: BZR (Ki)
Measured Endpoint: pKi
Answers are plain numbers, as −log10 of the molar value.

Hi, could you look up pKi for each item in my list?
1. C[C@H]1N=C(c2ccccc2F)c2cc(Br)ccc2-n2cnc(C(=O)O)c21
2. C#Cc1ccc2c(c1)C(c1ccccc1F)=N[C@@H](C)c1c(C(=O)OCC)ncn1-2
3. C#Cc1ccc2c(c1)C(c1ccccc1F)=N[C@H](C)c1c(C(=O)NCC)ncn1-2
4. C#Cc1ccc2c(c1)C(c1ccccn1)=NCc1c(-c3cnco3)ncn1-2
5. Brc1ccc2c(c1)C(c1ccccn1)=NCc1c(-c3cnco3)ncn1-2

1: 7.07; 2: 6.95; 3: 7.17; 4: 6.84; 5: 6.85

Hi, could you look up pKi for each item in my list?
1. C#Cc1ccc2c(c1)C(c1ccccc1F)=N[C@H](C)c1c(-c3nc(C(C)C)no3)ncn1-2
2. C#Cc1ccc2c(c1)C(c1ccccn1)=N[C@H](C)c1c(-c3nc(CC)no3)ncn1-2
3. C#Cc1ccc2c(c1)C(c1ccccc1F)=N[C@H](C)c1c(C(=O)N(C)C)ncn1-2
4. C#Cc1ccc2c(c1)C(c1ccccc1F)=N[C@@H](C)c1c(C(=O)OC(C)(C)CC)ncn1-2
5. CCOC(=O)c1ncn2c1[C@H](C)N=C(c1ccccc1F)c1cc(C3CC3)ccc1-2
6. C#Cc1ccc2c(c1)C(c1ccccc1F)=NCc1c(-c3ocnc3C)ncn1-2
7. C#Cc1ccc2c(c1)C(c1ccccc1F)=N[C@H](C)c1c(-c3cnco3)ncn1-2
8. Cc1ncoc1-c1ncn2c1CN=C(c1ccccn1)c1cc(Br)ccc1-2

1. 6.09
2. 5.69
3. 6.30
4. 6.93
5. 6.45
6. 7.35
7. 6.22
8. 6.53

Hi, could you look up pKi for each item in my list?
1. Cc1ncoc1-c1ncn2c1CN=C(c1ccccc1F)c1cc(Br)ccc1-2
2. C#Cc1ccc2c(c1)C(c1ccccc1F)=N[C@@H](C)c1c(-c3nc(CC)no3)ncn1-2
3. CCOC(=O)c1ncn2c1[C@@H](C)N=C(c1ccccn1)c1cc(Br)ccc1-2
4. C#Cc1ccc2c(c1)C(c1ccccc1F)=N[C@@H](C)c1c(C(=O)OCCC)ncn1-2
5. C#Cc1ccc2c(c1)C(c1ccccc1)=NCc1c(-c3cnco3)ncn1-2
6. C#Cc1ccc2c(c1)C(c1ccccc1F)=N[C@H](C)c1c(-c3nc(C)no3)ncn1-2
7. C[C@H]1N=C(c2ccccc2F)c2cc(Cl)ccc2-n2cnc(C(=O)O)c21

[7.70, 6.18, 6.25, 6.83, 7.02, 5.97, 7.38]

Hi, could you look up pKi for each item in my list?
1. C[C@@H]1N=C(c2ccccc2F)c2cc(Br)ccc2-n2cnc(-c3cnco3)c21
2. C#Cc1ccc2c(c1)C(c1ccccc1F)=N[C@@H](C)c1c(C(=O)OC(C)(C)C)ncn1-2

6.92
6.75

---

- Tested System: UniProt P35372
- Procedure Details: Radioligand competition binding, MOR ([3H]-DAMGO), HEK293 cell homogenates
- Reported Conditions: at 10,000 nM; [3H]-DAMGO
Measured Endpoint: MOR % (percent inhibition)

Hi, could you look up MOR % (percent inhibition) for each item in my list?
1. CCOC(=O)c1ncn2c1[C@@H](C)N=C(c1ccccc1F)c1cc(C3CC3)ccc1-2 [GL-III-42]
2. C#Cc1ccc2c(c1)C(c1ccccc1F)=N[C@H](C)c1c(-c3cnco3)ncn1-2 [GL-III-73]
3. C#Cc1ccc2c(c1)C(c1ccccn1)=N[C@H](C)c1c(-c3nc(CC)no3)ncn1-2 [GL-II-54]
4. C[C@@H]1N=C(c2ccccc2F)c2cc(Br)ccc2-n2cnc(-c3cnco3)c21 [GL-III-76]

0%
12%
0%
3%

---

- System: synaptic benzodiazepine-sensitive receptors (BZR), GABAAR
- Procedure Details: 3H-flunitrazepam binding, rat brain homogenate
- Reported Conditions: at 10,000 nM
Measured Endpoint: BZR % (percent inhibition) (%)
Numbers only, in %.

Example cases with answers are listed next.
GET BZR % (percent inhibition) where system = synaptic benzodiazepine-sensitive receptors (BZR), GABAAR and item = C#Cc1ccc2c(c1)C(c1ccccc1F)=N[C@@H](C)c1c(C(=O)OC(C)(C)CC)ncn1-2 [GL-I-33] 96

GET BZR % (percent inhibition) where system = synaptic benzodiazepine-sensitive receptors (BZR), GABAAR and item = C#Cc1ccc2c(c1)C(c1ccccn1)=N[C@H](C)c1c(C(=O)OCC)ncn1-2 [GL-II-19] 71

GET BZR % (percent inhibition) where system = synaptic benzodiazepine-sensitive receptors (BZR), GABAAR and item = C#Cc1ccc2c(c1)C(c1ccccc1F)=N[C@@H](C)c1c(C(=O)SCC)ncn1-2 [GL-I-77] 92

GET BZR % (percent inhibition) where system = synaptic benzodiazepine-sensitive receptors (BZR), GABAAR and item = C#Cc1ccc2c(c1)C(c1ccccn1)=NCc1c(C(=O)OC)ncn1-2 [MP-III-024] 81

GET BZR % (percent inhibition) where system = synaptic benzodiazepine-sensitive receptors (BZR), GABAAR and item = C#Cc1ccc2c(c1)C(c1ccccn1)=N[C@H](C)c1c(C(=O)NC)ncn1-2 [GL-II-31] 72

Hi, could you look up BZR % (percent inhibition) for each item in my list?
1. Cc1ncoc1-c1ncn2c1CN=C(c1ccccc1)c1cc(Br)ccc1-2 [KRM-III-66]
2. C#Cc1ccc2c(c1)C(c1ccccc1F)=N[C@@H](C)c1c(C(=O)NC(C)(C)C)ncn1-2 [GL-I-41]

1: 86; 2: 90

Hi, could you look up BZR % (percent inhibition) for each item in my list?
1. CCc1noc(-c2ncn3c2[C@@H](C)N=C(c2ccccc2F)c2cc(C4CC4)ccc2-3)n1 [GL-IV-03]
2. C#Cc1ccc2c(c1)C(c1ccccc1F)=N[C@@H](C)c1c(C(=O)OC3CC3)ncn1-2 [GL-I-38]
3. C#Cc1ccc2c(c1)C(c1ccccc1F)=N[C@@H](C)c1c(C(=O)NC3CC3)ncn1-2 [GL-I-55]
4. C#Cc1ccc2c(c1)C(c1ccccc1F)=N[C@@H](C)c1c(C(=O)OCC(F)(F)F)ncn1-2 [GL-I-36]
5. C#Cc1ccc2c(c1)C(c1ccccc1F)=NCc1c(-c3cnco3)ncn1-2 [KRM-II-18B]
6. C#Cc1ccc2c(c1)C(c1ccccc1F)=NCc1c(C(=O)OCc3ccccc3)ncn1-2 [MP-II-075]
7. CCOC(=O)c1ncn2c1[C@@H](C)N=C(c1ccccn1)c1cc(Br)ccc1-2 [GL-II-06]
8. Brc1ccc2c(c1)C(c1ccccn1)=NCc1c(-c3cnco3)ncn1-2 [KRM-II-97]

65
96
95
77
97
98
81
93

Hi, could you look up BZR % (percent inhibition) for each item in my list?
1. C#Cc1ccc2c(c1)C(c1ccccc1F)=N[C@@H](C)c1c(-c3nc(C(C)C)no3)ncn1-2 [GL-I-81]
2. C#Cc1ccc2c(c1)C(c1ccccc1F)=N[C@H](C)c1c(C(=O)NCC)ncn1-2 [GL-II-74]

83
84

Hi, could you look up BZR % (percent inhibition) for each item in my list?
1. C#Cc1ccc2c(c1)C(c1ccccc1F)=N[C@@H](C)c1c(C(=O)OC)ncn1-2 [MP-III-021]
2. C#Cc1ccc2c(c1)C(c1ccccc1F)=N[C@H](C)c1c(C(=O)NC)ncn1-2 [MP-III-022]
3. C#Cc1ccc2c(c1)C(c1ccccc1F)=N[C@@H](C)c1c(C(=O)NC)ncn1-2 [MP-III-023]
4. C#Cc1ccc2c(c1)C(c1ccccc1F)=N[C@@H](C)c1c(C(=O)OC(C)C)ncn1-2 [GL-I-31]
5. Cc1ncoc1-c1ncn2c1CN=C(c1ccccn1)c1cc(Br)ccc1-2 [KRM-II-81]

88
95
97
97
86

Hi, could you look up BZR % (percent inhibition) for each item in my list?
1. C[C@H]1N=C(c2ccccc2F)c2cc(Br)ccc2-n2cnc(-c3cnco3)c21 [GL-III-36]
2. C#Cc1ccc2c(c1)C(c1ccccc1F)=N[C@H](C)c1c(C(N)=O)ncn1-2 [MP-III-019.B]
3. C#Cc1ccc2c(c1)C(c1ccccn1)=NCc1c(-c3nc(CC)no3)ncn1-2 [MP-III-080]

[86, 94, 88]

---

- Tested System: κ opioid receptor (KOR) (Homo sapiens, UniProt P41145)
- Procedure Details: Radioligand competition binding, KOR ([3H]-U69593), HEK293 cell homogenates
Output t for records whose Ki is lower than 0.1 µM, f for records at or above 0.1 µM.

// known answers, use as guide
Quick check: Ki of CCOC(=O)c1ncn2c1[C@@H](C)N=C(c1ccccn1)c1cc(Br)ccc1-2 under 0.1 µM? f

Quick check: Ki of C#Cc1ccc2c(c1)C(c1ccccc1F)=N[C@@H](C)c1c(C(=O)OC)ncn1-2 under 0.1 µM? f

Quick check: Ki of C#Cc1ccc2c(c1)C(c1ccccn1)=NCc1c(C(=O)OCC)ncn1-2 under 0.1 µM? f

Quick check: Ki of C[C@H]1N=C(c2ccccc2F)c2cc(C3CC3)ccc2-n2cnc(C(=O)N(C)C)c21 under 0.1 µM? f

Quick check: Ki of C#Cc1ccc2c(c1)C(c1ccccc1F)=N[C@H](C)c1c(C(=O)OC)ncn1-2 under 0.1 µM? f

New cases:
Quick check: Ki of CCNC(=O)c1ncn2c1[C@@H](C)N=C(c1ccccc1F)c1cc(C3CC3)ccc1-2 under 0.1 µM? f

Quick check: Ki of Cc1ncoc1-c1ncn2c1CN=C(c1ccccc1F)c1cc(Br)ccc1-2 under 0.1 µM? f

Quick check: Ki of C#Cc1ccc2c(c1)C(c1ccccc1F)=N[C@@H](C)c1c(C(=O)OCC)ncn1-2 under 0.1 µM? t

Quick check: Ki of C#Cc1ccc2c(c1)C(c1ccccc1F)=N[C@@H](C)c1c(C(=O)N(C)C)ncn1-2 under 0.1 µM? f

Quick check: Ki of C#Cc1ccc2c(c1)C(c1ccccc1F)=N[C@@H](C)c1c(C(=O)OCCC)ncn1-2 under 0.1 µM? t

Quick check: Ki of C#Cc1ccc2c(c1)C(c1ccccc1F)=N[C@@H](C)c1c(C(=O)OC(C)(C)CC)ncn1-2 under 0.1 µM? t

Quick check: Ki of C#Cc1ccc2c(c1)C(c1ccccc1F)=N[C@H](C)c1c(C(=O)OCC)ncn1-2 under 0.1 µM? f

Quick check: Ki of C#Cc1ccc2c(c1)C(c1ccccc1F)=N[C@H](C)c1c(C(=O)N(C)C)ncn1-2 under 0.1 µM? f

Quick check: Ki of C#Cc1ccc2c(c1)C(c1ccccc1F)=N[C@H](C)c1c(C(=O)NC3CC3)ncn1-2 under 0.1 µM? f

Quick check: Ki of C#Cc1ccc2c(c1)C(c1ccccc1F)=N[C@@H](C)c1c(C(=O)NC)ncn1-2 under 0.1 µM? f
